- experiment summary: amyloid nucleation score (Sup35N fusion, yeast selection) (log enrichment); library NNK3; higher = more nucleation; inactive = no reads after selection;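 note: zero at mode of non-aggregating sequences after 7 days selection at 30°C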
outcome measure: amyloid nucleation score

Use the examples below as a reference point.
[in] Identify amyloid nucleation score associated with the substance `YRLCRGFNSFI`
[out] inactive

[in] Identify amyloid nucleation score associated with the substance `RFWMRKY`
[out] inactive

[in] Identify amyloid nucleation score associated with the substance `NVYTPSIFACWSLCEGFFGI`
[out] 2.2

[in] Identify amyloid nucleation score associated with the substance `GPFQLA`
[out] inactive

[in] Identify amyloid nucleation score associated with the substance `DEFINLSFA`
[out] inactive

[in] Identify amyloid nucleation score associated with the substance `YSGGKGSGRELRYTLLVRGT`
[out] inactive

[in] Identify amyloid nucleation score associated with the substance `AKYIEHGYCF`
[out] inactive

[in] Identify amyloid nucleation score associated with the substance `THSGQEEWLVNKDAS`
[out] inactive

Continuing:
[in] Identify amyloid nucleation score associated with the substance `LSELYHTFYSVVNGGHVLMI`
[out] inactive

[in] Identify amyloid nucleation score associated with the substance `NWVLARIWW`
[out] 0.755

[in] Identify amyloid nucleation score associated with the substance `GYLRNMVWRMSQYIREVCPR`
[out] inactive

[in] Identify amyloid nucleation score associated with the substance `VIIINRVIENRWSDRHEITN`
[out] 2.57

[in] Identify amyloid nucleation score associated with the substance `GFSCVNFFAWIL`
[out] 1.81

[in] Identify amyloid nucleation score associated with the substance `PWLLVIIVLFGLYCRM`
[out] inactive

[in] Identify amyloid nucleation score associated with the substance `RVNNGT`
[out] inactive

[in] Identify amyloid nucleation score associated with the substance `FISDRGGLVRMNYPPRHW`
[out] inactive

[in] Identify amyloid nucleation score associated with the substance `RRKRSQSE`
[out] inactive

[in] Identify amyloid nucleation score associated with the substance `VTLMILKGVFKFM`
[out] -0.136

[in] Identify amyloid nucleation score associated with the substance `SDNGEIMILYRLRAVGDFE`
[out] inactive

[in] Identify amyloid nucleation score associated with the substance `CFDWYFDNDTRFIVGAMLVW`
[out] inactive

[in] Identify amyloid nucleation score associated with the substance `VLNFWGAVFPIIMLFYESVY`
[out] 2.03

Entry source: the supplement of paper PMC12042874
